biological target: Human t-PA (Homo sapiens, UniProt P00750)
Sequence (P00750 36-562): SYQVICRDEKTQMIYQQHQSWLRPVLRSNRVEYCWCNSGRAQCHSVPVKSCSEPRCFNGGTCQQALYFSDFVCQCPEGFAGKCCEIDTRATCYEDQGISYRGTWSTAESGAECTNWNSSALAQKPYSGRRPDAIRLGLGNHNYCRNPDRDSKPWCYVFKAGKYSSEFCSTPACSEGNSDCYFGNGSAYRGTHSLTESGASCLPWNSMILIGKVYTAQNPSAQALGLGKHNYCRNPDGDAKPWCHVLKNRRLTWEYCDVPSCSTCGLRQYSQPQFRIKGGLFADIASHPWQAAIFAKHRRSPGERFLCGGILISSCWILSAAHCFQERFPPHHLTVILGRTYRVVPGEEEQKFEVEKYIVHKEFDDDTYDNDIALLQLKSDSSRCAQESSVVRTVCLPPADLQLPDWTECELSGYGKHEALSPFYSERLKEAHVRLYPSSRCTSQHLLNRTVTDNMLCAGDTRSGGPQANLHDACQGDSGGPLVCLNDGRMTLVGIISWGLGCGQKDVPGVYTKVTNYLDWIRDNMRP
PARAMETER MEASURED: IC50

Tell me IC50 of Cl.N[C@H](CF)[C@H]1CC[C@H](C(=O)N2CC[C@@H](C3CCCCC3)[C@H]2C(=O)Nc2ccc3[nH]c(C(=O)O)cc3c2)CC1 [Reference Example 2-6, hydrochloride] when tested on Human t-PA (Homo sapiens, UniProt P00750).
> 10 µM

---

Each record here notes measured Residual rate (%) Human plasma.
test system: human plasma; experiment: Ester metabolism stability test: stability in human plasma; format: in vitro ADME; conditions: 37° C., 20 minutes
Please give a number only; it is taken to be in %.

Sample records with Residual rate (%) Human plasma:
Cl.N[C@H](CF)[C@H]1CC[C@H](C(=O)N2CC[C@@H](C3CCCCC3)[C@H]2C(=O)Nc2ccc3c(c2)cc2n3C(CF)(CF)OC2=O)CC1 ... 7.9
CC1(C)OC(=O)c2cc3cc(NC(=O)[C@@H]4[C@H](c5ccccc5)CCN4C(=O)[C@H]4CC[C@H]([C@H](N)CF)CC4)ccc3n21.Cl ... 15
CC1(C)OC(=O)c2cc3cc(NC(=O)[C@@H]4[C@H](N5CCCCC5)CCN4C(=O)[C@H]4CC[C@H]([C@H](N)CF)CC4)ccc3n21 ... 14
CC1(C)OC(=O)c2cc3cc(NC(=O)[C@@H]4[C@H](C5CCCCC5)CCN4C(=O)[C@H]4CC[C@H](CN)CC4)ccc3n21.Cl ... 50
CC1(C)OC(=O)c2cc3cc(NC(=O)[C@@H]4[C@H](C5CCCCC5)CCN4C(=O)[C@H]4CC[C@H]([C@H](N)CF)CC4)ccc3n21.Cl ... 29
CO[C@H]1CC[C@H]([C@@H]2CCN(C(=O)[C@H]3CC[C@H]([C@H](N)CF)CC3)[C@@H]2C(=O)Nc2ccc3c(c2)cc2n3C(CF)(CF)OC2=O)CC1 ... 21
CO[C@H]1CC[C@H]([C@@H]2CCN(C(=O)[C@H]3CC[C@H]([C@H](N)CF)CC3)[C@@H]2C(=O)Nc2ccc3c(c2)cc2n3C(C)(C)OC2=O)CC1.Cl ... 6.7
CC1(C)OC(=O)c2cc3cc(NC(=O)[C@@H]4[C@@H](c5ccccc5)CCN4C(=O)[C@H]4CC[C@H]([C@H](N)CF)CC4)ccc3n21.Cl ... 11

Tell me Residual rate (%) Human plasma of Cl.NC[C@H]1CC[C@H](C(=O)N2CC[C@@H](C3CCCCC3)[C@H]2C(=O)Nc2ccc3c(c2)cc2n3C(CF)(CF)OC2=O)CC1 when tested on human plasma.
15
